# Tested on: MDA-MB-231 breast
# ASSAY_PROTOCOL: NCI tumour cell line growth inhibition, 48 h; in the data active = GI50 below about 0.43 µM; inactive = the rest
Labels: active, inactive

>  <SMILES>
O=C1Nc2cc(Cl)ccc2Oc2cc(Oc3ccccc3)ccc21

>  <TARGET_OR_TEST_SYSTEM>
MDA-MB-231 breast

>  <QUALITATIVE_LABEL>
inactive

$$$$
>  <SMILES>
CCc1ccc(CCC(=O)Nc2ncc(Cc3cc(Cl)ccc3Cl)s2)o1

>  <TARGET_OR_TEST_SYSTEM>
MDA-MB-231 breast

>  <QUALITATIVE_LABEL>
inactive

$$$$
>  <SMILES>
Cc1ccc(Cl)cc1Nc1nc(C(F)(F)F)ccc1C(=O)N/N=C/c1c(Cl)cccc1Cl

>  <TARGET_OR_TEST_SYSTEM>
MDA-MB-231 breast

>  <QUALITATIVE_LABEL>
inactive

$$$$
>  <SMILES>
COc1ccc2nc3cccc([N+](=O)[O-])c3c(NCCN(CCO)CCO)c2c1

>  <TARGET_OR_TEST_SYSTEM>
MDA-MB-231 breast

>  <QUALITATIVE_LABEL>
active

$$$$
>  <SMILES>
COc1cc(-c2cc(/C=C/C(=O)c3ccc4c(c3)OCO4)[nH]n2)cc(OC)c1OC

>  <TARGET_OR_TEST_SYSTEM>
MDA-MB-231 breast

>  <QUALITATIVE_LABEL>
inactive

$$$$

====

# Test system: U251 CNS
# ASSAY_PROTOCOL: NCI tumour cell line growth inhibition, 48 h
Reported TGI by item:

>  <COMPOUND>
CC(Oc1ccccc1)C(=O)NN (centres undefined)

>  <CENSORING_OPERATOR>
>

>  <TGI (µM)>
100

$$$$
>  <COMPOUND>
CCOc1ccc(C2=C(Cl)c3cc(OC)c(OC)cc3C2Cl)cc1 (centres undefined)

>  <CENSORING_OPERATOR>
=

>  <TGI (µM)>
39.8

$$$$
>  <COMPOUND>
C=CCCC(O)c1ccc(C(O)CCCCCCCCCCCC)o1 (centres undefined)

>  <CENSORING_OPERATOR>
=

>  <TGI (µM)>
31.9

$$$$
>  <COMPOUND>
CCCCCCNC(=O)c1cc(C#Cc2cc(OC)ccc2OC)ccc1OC

>  <CENSORING_OPERATOR>
>

>  <TGI (µM)>
100

$$$$
>  <COMPOUND>
Brc1ccccc1/C=C\C1(c2ccccc2)OCCO1

>  <CENSORING_OPERATOR>
=

>  <TGI (µM)>
18.4

$$$$
>  <COMPOUND>
O=c1n(CCCN2CCN(c3cccc(Cl)c3)CC2)nc2n1-c1ccc3ccccc3c1SC2

>  <CENSORING_OPERATOR>
>

>  <TGI (µM)>
100

$$$$
>  <COMPOUND>
C#CC[C@@H]1C[C@]2(C)[C@H]3CC[C@@H]4[C@H]5[C@H](C(=C)C)CC[C@]5(C(=O)O)CC[C@@]4(C)[C@]3(C)CC[C@H]2C(C)(C)[C@H]1O

>  <CENSORING_OPERATOR>
=

>  <TGI (µM)>
3.03

$$$$
>  <COMPOUND>
Nc1ccc2cc(S(=O)(=O)O)cc(O)c2c1N=Nc1ccc(NC(=O)Nc2ccc(N=Nc3c(N)ccc4cc(S(=O)(=O)O)cc(O)c34)c(S(=O)(=O)O)c2)cc1S(=O)(=O)O

>  <CENSORING_OPERATOR>
>

>  <TGI (µM)>
100

$$$$
>  <COMPOUND>
Cc1nc2c(O)cccc2c(=O)[nH]1

>  <CENSORING_OPERATOR>
>

>  <TGI (µM)>
1000

$$$$

====

Reported TGI by item:
# System: BT-549 breast
# ASSAY_PROTOCOL: NCI tumour cell line growth inhibition, 48 h
MEASURE_NAME: TGI

>  <MOLECULE>
CCc1ccc(CCC(=O)O)nc1

>  <TARGET_OR_TEST_SYSTEM>
BT-549 breast

>  <EXPERIMENTAL_RESULT>
> 100 µM

$$$$
>  <MOLECULE>
O=C(c1ccccn1)c1nnn2ccccc12

>  <TARGET_OR_TEST_SYSTEM>
BT-549 breast

>  <EXPERIMENTAL_RESULT>
> 100 µM

$$$$
>  <MOLECULE>
CC1CC(=O)N2CCCNC2=C1C#N (stereo unspecified)

>  <TARGET_OR_TEST_SYSTEM>
BT-549 breast

>  <EXPERIMENTAL_RESULT>
> 100 µM

$$$$
>  <MOLECULE>
C[C@@H](C(=O)O)c1ccc(-c2ccccc2)c(F)c1

>  <TARGET_OR_TEST_SYSTEM>
BT-549 breast

>  <EXPERIMENTAL_RESULT>
> 100 µM

$$$$
>  <MOLECULE>
CSc1c(CC(=O)O)n(Cc2ccccc2)c2ccccc12

>  <TARGET_OR_TEST_SYSTEM>
BT-549 breast

>  <EXPERIMENTAL_RESULT>
> 100 µM

$$$$
>  <MOLECULE>
Cn1c(=O)nc2n(CCO)ccnc-2c1=O

>  <TARGET_OR_TEST_SYSTEM>
BT-549 breast

>  <EXPERIMENTAL_RESULT>
> 100 µM

$$$$
>  <MOLECULE>
C[N+](C)(C)CCC(=O)N1C/C(=C\c2ccccc2)C(=O)/C(=C/c2ccccc2)C1

>  <TARGET_OR_TEST_SYSTEM>
BT-549 breast

>  <EXPERIMENTAL_RESULT>
4.95 µM

$$$$
>  <MOLECULE>
Cc1[nH]c2ncn3ncnc3c2c1Cc1ccccc1

>  <TARGET_OR_TEST_SYSTEM>
BT-549 breast

>  <EXPERIMENTAL_RESULT>
> 100 µM

$$$$
>  <MOLECULE>
COc1ccc(S(=O)(=O)N2CCN(C(=O)OCc3ccccc3)CC2C(=O)NO)cc1 (stereo unspecified)

>  <TARGET_OR_TEST_SYSTEM>
BT-549 breast

>  <EXPERIMENTAL_RESULT>
> 25 µM

$$$$
>  <MOLECULE>
CN(C)c1ccc(/C=C(\C#N)c2cc3ccccc3n2C)cc1

>  <TARGET_OR_TEST_SYSTEM>
BT-549 breast

>  <EXPERIMENTAL_RESULT>
> 100 µM

$$$$
>  <MOLECULE>
O=C1Nc2ccccc2C1(c1ccc(O)c(F)c1)c1ccc(O)c(F)c1

>  <TARGET_OR_TEST_SYSTEM>
BT-549 breast

>  <EXPERIMENTAL_RESULT>
0.593 µM

$$$$

====

# Test system: SW-620 colon
# ASSAY_PROTOCOL: NCI tumour cell line growth inhibition, 48 h
MEASURE_NAME: GI50

>  <COMPOUND>
O=C(O)c1cc(N/C=C2\C(=O)c3ccccc3OC2O)ccc1O (stereo not given)

>  <TARGET_OR_TEST_SYSTEM>
SW-620 colon

>  <MEASURE_NAME>
GI50

>  <EXPERIMENTAL_RESULT>
23.4 µg/mL

$$$$
>  <COMPOUND>
COc1ccc(-c2cn(-c3ccc(Cl)cc3)c(=S)[nH]2)cc1OC

>  <TARGET_OR_TEST_SYSTEM>
SW-620 colon

>  <MEASURE_NAME>
GI50

>  <EXPERIMENTAL_RESULT>
> 100 µM

$$$$
>  <COMPOUND>
Nc1ncnc2c1c(-c1cccc(OCc3ccccc3)c1)cn2C1CC(CN2CCCC2)C1 (stereo not given)

>  <TARGET_OR_TEST_SYSTEM>
SW-620 colon

>  <MEASURE_NAME>
GI50

>  <EXPERIMENTAL_RESULT>
1.03 µM

$$$$
>  <COMPOUND>
COc1ccc(-c2cc(-c3ccc(O)cc3)nc3nc(=S)[nH]c(N)c23)cc1

>  <TARGET_OR_TEST_SYSTEM>
SW-620 colon

>  <MEASURE_NAME>
GI50

>  <EXPERIMENTAL_RESULT>
16 µM

$$$$
>  <COMPOUND>
Fc1ccc(-c2ncn(C3CCNCC3)c2-c2ccnc(Oc3ccccc3)n2)cc1

>  <TARGET_OR_TEST_SYSTEM>
SW-620 colon

>  <MEASURE_NAME>
GI50

>  <EXPERIMENTAL_RESULT>
> 25 µM

$$$$

====

# Test system: CAKI-1 renal
# ASSAY_PROTOCOL: NCI tumour cell line growth inhibition, 48 h
MEASURE_NAME: GI50

>  <COMPOUND>
CCOC(=O)c1ccc2c(c1)[n+](=O)c(C(=O)c1ccc3ccccc3c1)c(C(F)(F)F)n2[O-]

>  <MEASURE_NAME>
GI50

>  <EXPERIMENTAL_RESULT>
1.42 µM

$$$$
>  <COMPOUND>
CCCCCCCCCCCCOC1C(CNC(=O)C2OC3OC(C)(C)OC3C2NC(=O)CN2CCN(c3ccccn3)CC2)OC2OC(C)(C)OC21 (configuration not stated)

>  <MEASURE_NAME>
GI50

>  <EXPERIMENTAL_RESULT>
2.27 µM

$$$$
>  <COMPOUND>
O=C(CCc1nnc(-c2c(Cl)cccc2Cl)o1)c1nc2ccccc2[nH]1

>  <MEASURE_NAME>
GI50

>  <EXPERIMENTAL_RESULT>
3.49 µM

$$$$
>  <COMPOUND>
Cc1ccc(Cl)cc1Nc1nc(C(F)(F)F)ccc1C(=O)N/N=C/c1c(Cl)cccc1Cl

>  <MEASURE_NAME>
GI50

>  <EXPERIMENTAL_RESULT>
0.495 µM

$$$$
>  <COMPOUND>
CCCCCCCCCCCC1=NC(C)(C)CN1CCO

>  <MEASURE_NAME>
GI50

>  <EXPERIMENTAL_RESULT>
4.57 µM

$$$$
>  <COMPOUND>
CCOCCc1c(O)nc(SC)[nH]c1=O

>  <MEASURE_NAME>
GI50

>  <EXPERIMENTAL_RESULT>
> 100 µM

$$$$
>  <COMPOUND>
COc1ccccc1CNCCCN1C(=O)c2ccc3c4c(ccc(c24)C1=O)C(=O)N(CCCNCCCCNCCCCN)C3=O

>  <MEASURE_NAME>
GI50

>  <EXPERIMENTAL_RESULT>
3.98 µM

$$$$

// provenance: PubChem BioAssay (NCI)
